Target: IL-13 (Homo sapiens (Human), UniProt P35225 35-146, limits assumed)
Sequence (P35225 35-146 limits assumed): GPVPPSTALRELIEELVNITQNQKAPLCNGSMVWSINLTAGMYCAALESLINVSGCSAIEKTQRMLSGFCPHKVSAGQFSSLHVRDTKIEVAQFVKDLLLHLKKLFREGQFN
Test: Biacore
Measured koff, listed per entry.
# output: bare number, implied unit s⁻¹

M468 (antibody, V domains shown, anti-IL-13, human IgG1) VH: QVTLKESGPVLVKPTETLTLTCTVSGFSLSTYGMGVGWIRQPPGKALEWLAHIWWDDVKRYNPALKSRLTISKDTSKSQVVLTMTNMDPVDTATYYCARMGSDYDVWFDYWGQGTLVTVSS VL: EIVLTQSPATLSLSPGERATLSCRASKSISKYLAWYQQKPGQAPRLLIYSGSTLQSGIPARFSGSGSGTDFTLTISSLEPEDFAVYYCQQHFWGPYTFGQGTKLEIK: 0.0001

Please examine the following record next.
Value lookup for koff; key = M473 (antibody, V domains shown, anti-IL-13, human IgG1) VH: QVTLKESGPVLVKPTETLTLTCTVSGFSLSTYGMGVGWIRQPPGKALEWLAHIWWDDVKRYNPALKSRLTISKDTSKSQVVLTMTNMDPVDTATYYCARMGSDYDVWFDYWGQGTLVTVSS VL: EIVLTQSPATLSLSPGERATLSCRASKSISKYLAWYQQKPGQAPRLLIYSGSTLQSGIPARFSGSGSGTDFTLTISSLEPEDFAVYYCQQHDRDPYTFGQGTKLEIK
0.000403
